B1: Elongin-A2 (Homo sapiens), Q8IYF1 (parent)
chain: MAAGSTTLHAVEKLQVRLATKTEPKKLEKYLQKLSALPMTADILAETGIRKTVKRLRKHQHVGDFARDLAARWKKLVLVDRNTRPGPQDPEESASRQRFGEALQDQEKAWGFPENATAPRSPSHSPEHRRTARRTPPGQQRPHPRSHSREPRAERKCPRIAPADSGRYRASPTRTAPLRMPEGPEPAAPGKQPGRGHTHAAQGGPLLCPGCQGQPQGKAVVSHSKGHKSSRQEKRPLCAQGDWHSPTLIREKSCGACLREETPRMPSWASARDRQPSDFKTDKEGGQAGSGQRVPALEEAPDSHQKRPQHSHSNKKRPSLDGRDPGNGTHGLSPEEKEQLSNDRETQEGKPPTAHLDRTSVSSLSEVEEVDMAEEFEQPTLSCEKYLTYDQLRKQKKKTGKSATTALGDKQRKANESKGTRESWDSAKKLPPVQESQSERLQAAGADSAGPKTVPSHVFSELWDLSEAWMQANYDPLSDSDSMTSQAKPEALSSPKFREEAAFPGRRVNAKMPVYSGSRPACQLQVPTLRQQCAQVLRNNPDALSDVGEVPYWVLEPVLEGWRPDQLYRRKKDNHALVRETDELRRNHCFQDFKEEKPQENKTWREQYLRLPDAPEQRLRVMTTNIRSARGNNPNGREAKMICFKSVAKTPYDTSRRQEKSAGDADPENGEIKPASKPAGSSHTPSSQSSSGGGRDSSSSILRWLPEKRANPCLSSSNEHAAPAAKTRKQAAKKVAPLMAKAIRDYKRRFSRR
partner: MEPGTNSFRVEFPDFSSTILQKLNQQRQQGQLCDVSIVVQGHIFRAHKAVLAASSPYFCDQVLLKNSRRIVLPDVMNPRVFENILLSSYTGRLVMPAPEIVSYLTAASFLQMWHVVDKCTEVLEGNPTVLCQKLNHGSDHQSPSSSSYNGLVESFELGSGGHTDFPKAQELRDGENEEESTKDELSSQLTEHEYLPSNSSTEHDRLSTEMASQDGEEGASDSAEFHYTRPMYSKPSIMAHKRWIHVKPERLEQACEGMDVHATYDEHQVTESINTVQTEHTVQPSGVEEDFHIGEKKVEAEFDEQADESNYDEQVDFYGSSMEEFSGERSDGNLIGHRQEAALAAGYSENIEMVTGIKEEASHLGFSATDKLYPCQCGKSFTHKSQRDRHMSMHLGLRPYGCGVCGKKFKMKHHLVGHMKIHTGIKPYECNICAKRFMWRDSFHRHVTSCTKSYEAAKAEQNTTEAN

Variants of: B1
measurement_parameters: with zbt43_human ZBTB43, O43298
property_measured: effect of a mutation on the interaction

mutant_designation: D302H
measured: with no effect
--
mutant_designation: A446T
measured: with no effect
--
mutant_designation: G505R
measured: with no effect
